# credit: patent US20090240038A1

- study.system: T1, EGFRvIII (type III deletion mutant of the epidermal growth factor receptor), expressed on cells (human, UniProt P00533 298-1210)
- T1 construct: Also used for lysates of H1477 cells in Western blots; also called delta-EGFr; dEGFR
- test.summary: FACS, NR6 M cells, 0.25 µg/ml mAb + Alexa anti-human IgG Fab, 37 C without glutathione
measurement.type: FACS geometric mean
Respond numerically, and do not add a unit to the figure.

[Q] Look up FACS geometric mean: antibody 250 (antibody, human IgG1, V domains shown, Recombinant human IgG1 kappa; also called SC250; sc250) VH: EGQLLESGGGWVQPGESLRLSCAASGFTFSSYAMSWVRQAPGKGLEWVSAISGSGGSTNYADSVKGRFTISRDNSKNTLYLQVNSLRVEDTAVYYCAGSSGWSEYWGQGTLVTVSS VL: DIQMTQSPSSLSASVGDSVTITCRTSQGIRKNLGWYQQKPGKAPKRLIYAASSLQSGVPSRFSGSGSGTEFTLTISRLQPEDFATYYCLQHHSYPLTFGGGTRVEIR
[A] 24.1

[Q] Name the recorded FACS geometric mean for antibody 095 (antibody, human IgG1, V domains shown, Recombinant human IgG1 kappa; also called mAb 095; SC95) VH: QVQLQESGPFLVKPSQTLSLTCTVSGGSISSGGYYWSWIRQHPGKGLEWIGFIYYRGNTYYNPSLKSRVTISVDTSKNQFSLKLSSVTAADTAVYYCARDGYCSRTGCYGGWFDPWGQGTLVTVSP VL: DIVMTQTPLSSPVTLGQPASISCRSSQSLIHTDGNIYLSWLQQRPGQPPRLLIYKISNRFSGVPDRFSGSGAGTDFTLKISRVEAEDVGVYYCMQGTQFPITFGQGTRLEIK .
[A] 22.6

[Q] Data request, read-out FACS geometric mean, for antibody 211 (antibody, human IgG1, V domains shown, Recombinant human IgG1 kappa; also called SC211; sc211) VH: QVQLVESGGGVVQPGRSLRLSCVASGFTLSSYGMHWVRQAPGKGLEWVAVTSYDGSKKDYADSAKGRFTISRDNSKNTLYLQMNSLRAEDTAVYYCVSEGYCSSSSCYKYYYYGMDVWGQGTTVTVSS VL: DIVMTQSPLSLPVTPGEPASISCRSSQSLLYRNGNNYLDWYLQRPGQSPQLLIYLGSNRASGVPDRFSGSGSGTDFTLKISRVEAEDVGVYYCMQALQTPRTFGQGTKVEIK
[A] 20.8

[Q] So what's the measured FACS geometric mean for this one? antibody 139 (antibody, human IgG1, V domains shown, Recombinant human IgG1 kappa; also called SC139) VH: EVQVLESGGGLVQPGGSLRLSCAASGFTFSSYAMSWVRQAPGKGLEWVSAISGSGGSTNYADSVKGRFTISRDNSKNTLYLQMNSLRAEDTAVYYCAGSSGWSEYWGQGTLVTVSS VL: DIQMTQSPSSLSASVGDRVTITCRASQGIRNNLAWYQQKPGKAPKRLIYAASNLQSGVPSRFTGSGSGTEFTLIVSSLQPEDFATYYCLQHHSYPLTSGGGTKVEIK
[A] 22.6
